Just for reference, ChEMBL document CHEMBL1201862 is where these values come from.

Test system: HCT-116
Assay details: NCI tumour cell line growth inhibition, 48 h
Activity calls are given as the source filed them. Cut-off read from the data, not from the text of the source: active = GI50 up to about 1.1 µM and inactive = higher.
Outcome codes: y = active, n = inactive

# Compound, Assayed system, Answer label
rows = [
    ("Cc1ccccc1NC(=O)C(=O)CC(=O)c1ccc([N+](=O)[O-])cc1", "HCT-116", "n"),
    ("Cc1ccc(C(=O)/C=C2\\Nc3ccccc3N=C2NC23CC4CC(CC(C4)C2)C3)cc1", "HCT-116", "n"),
    ("COc1cc(C2C(Cl)C(=O)N2NC(=O)Cc2ccccc2)ccc1O (stereo unspecified)", "HCT-116", "n"),
    ("c1csc(-c2nccc3c2[nH]c2ccccc23)c1", "HCT-116", "n"),
    ("O=C1NC(=O)C(CC(C(=O)C(=O)Nc2ccccc2Cl)C(=O)c2ccc3ccccc3c2)C(=O)N1 (stereo unspecified)", "HCT-116", "n"),
    ("CC1(C)[C@@H](Cn2cnc3c(Cl)nc(N)nc32)CC[C@@]1(C)CO", "HCT-116", "n"),
    ("COc1ccc2c(c1)OCCc1cn[nH]c1-2", "HCT-116", "n"),
    ("O=c1oc2cc(O)ccc2cc1-c1nc2ccccc2o1", "HCT-116", "n"),
    ("O=C1Nc2cccc3cc(NCC(O)CCl)cc1c23 (stereo unspecified)", "HCT-116", "n"),
    ("COc1ccccc1/N=N/c1c(-c2ccccc2)nn(C(=O)CC(=O)Nc2cccc(C)c2)c1-c1ccccc1", "HCT-116", "n"),
    ("CCCCC/C(=N\\c1[nH]nnc1C(N)=O)OCC", "HCT-116", "n"),
    ("COc1cc(NS(C)(=O)=O)ccc1Nc1c2ccccc2nc2c1[nH]c1ccc(NC3OC(CO)C(O)C(O)C3O)cc12 (stereo unspecified)", "HCT-116", "y"),
    ("CC1C2CC(C(S(=O)(=O)N3CCOCC3)/C2=N\\O)C1(C)C (stereo unspecified)", "HCT-116", "n"),
    ("COc1cc([C@@H]2c3cc4c(cc3[C@@H](Nc3ccccc3C(=O)c3ccccc3)[C@H]3COC(=O)[C@H]23)OCO4)cc(OC)c1OC", "HCT-116", "y"),
    ("COC(=O)[C@@H]1CN(C(=O)c2ccccc2)C(=O)N1", "HCT-116", "n"),
    ("CCC[C@H]1C(=O)N=C(N)N1C(=O)OCc1ccccc1", "HCT-116", "n"),
    ("COC(=O)[C@@H]1COC(C(C)(C)C)N1C(=O)C(c1ccccc1)c1ccccc1 (stereo partly specified)", "HCT-116", "n"),
    ("O=P(O)(O)c1ccc(-c2ccc(I)cc2)cc1", "HCT-116", "n"),
    ("C[N+](C)(C)CC(=O)N/N=C(\\CCC(=O)NCCc1ccccc1)CC(=O)c1ccccc1", "HCT-116", "n"),
    ("O=C(CCCN1CCC2(CC1)CC(c1ccccc1)OC2=O)c1ccc(F)cc1 (stereo unspecified)", "HCT-116", "n"),
    ("CC12CP(=O)(c3ccccc3)CC1C2(Cl)Cl (stereo unspecified)", "HCT-116", "n"),
]

====

System: SNB-75
Assay details: NCI tumour cell line growth inhibition, 48 h
Activity calls are given as the source filed them. Cut-off read from the data, not from the text of the source: active = GI50 up to about 1.1 µM and inactive = higher.
Quantity: GI50

# Compound, Assayed system, Quantity, Recorded measurement
rows = [
    ("COC(=O)c1c(OC(C)=O)ccc2c1c1c(n2C)C(=O)c2ccccc2C1=O", "SNB-75", "GI50", "7.93 µM (inactive)"),
    ("O=c1oc2cc(O)ccc2cc1-c1nc2ccccc2o1", "SNB-75", "GI50", "63.8 µM (inactive)"),
    ("COc1cccc(OC)c1/C=C1\\OC(=O)c2cccc(OC)c21", "SNB-75", "GI50", "2.96 µM (inactive)"),
    ("CC1=NN(C(=O)CC(=O)Nc2cccc(Cl)c2)C(=O)C1/N=N/c1ccc(C(=O)O)cc1 (stereo not given)", "SNB-75", "GI50", "52.1 µM (inactive)"),
    ("COc1cc(OC)c2c(c1)OC(c1cccnc1)C(c1ccccc1)C2=O (stereo not given)", "SNB-75", "GI50", "> 100 µM (inactive)"),
    ("C=CCc1[nH]c2c(OCc3ccccc3)cc(N(CC=C)C(C)=O)cc2c1C", "SNB-75", "GI50", "10.7 µM (inactive)"),
    ("c1ccc(CSCCC(SCc2ccccc2)SCc2ccccc2)cc1", "SNB-75", "GI50", "> 10 µM (inactive)"),
    ("CC(C)NC(=O)OCCN=c1c2ccccc2ccc2ccccc12", "SNB-75", "GI50", "62.5 µM (inactive)"),
    ("CCO/C=N/C1=C(C#N)C(c2ccc(OC)c(OC)c2)c2c(-c3ccccc3)nn(-c3ccccc3)c2O1 (stereo not given)", "SNB-75", "GI50", "15.5 µM (inactive)"),
    ("CCOC(=O)C1(C#N)C(c2ccccc2)CC(O)(c2ccc([N+](=O)[O-])cc2)C(C(=O)c2ccc([N+](=O)[O-])cc2)C1c1ccccc1 (stereo not given)", "SNB-75", "GI50", "21 µM (inactive)"),
]
